- Protocol Description: yeast display, Sf9 membrane polyspecificity reagent, FACS + sequencing; frameworks hold sequencing errors
Value Type: polyreactivity (PSR sort gate)

QVQLVESGGVLVQAGGSLRLSCAASGSIYTWYAMGWYRQAPGKERELVAAITRGGSTYADSVKGRFTISRENAKNTVYLQMNSLKPEDTAVYYCNAVYGVYDFNYWGQGTQVTVSS; low polyreactivity
QVQLLESGGGLVKAGGSLRLSCAPYGSIFYGYAMGWYRPAPGKERELVAAITRSGGSTYYADSVKGRFTITRFNAKNTVYLQMNSLKPEDTAVYYCAAGWRSVSVRYYGPSDYWGQGTQVTVSS; low polyreactivity
KVQLVESGGGLFQAGGSLGLSCAPSGNTFYHYAMGWYRQSPGKERELVAGIRYNGGSTYYADSVKGRFTISRDNAKNTVYLHMKSLKPEDTAVYYCATIGYTGYAYRYGYWGQGTQVTVSS; high polyreactivity
QVQLVESGGGLVQAGGSLRLSCAASGIIFSSYGMGWYRQAPGKERELVAAIRWSTGNTYYADSVKGRFTISRDNAKNTVYLQMNSLKPEDTAVYYCAKRSSWGYHFYYWGQGTQVTVSS; high polyreactivity

Hello, I would appreciate it if you could give polyreactivity (PSR sort gate) for each entry below.
1. QDQLVESGGGLVQAGGSLRLSCAASGNIFKCKVMGWYRQAPGKERELVAAISRSGGRTYYADSVKGRFTISRDNAKNTVYLQMNSLKPVDTAVYYCNTKHRTKPTRPVDYWGQGTQVTVSS
2. QVHRVESGGRLVPAGGSLRLSCAASGFTFSVNAMGWYTPPPGKEMELVAAISSGGSTSYADSVKGRFTISRDNAKNTVYLQMNSLKPEDTAVYYCAAEYHSAGSLYTYSKYYHWGQGTQVTVSS
3. QVQLVESGGGLVQAGGTLRLSCAASGRIFRENAMGWYRQAPGKERELVAAISSGGSTYYADSVKGRFTISRDNAKNTVYLQMNSLKPEDTAVYYCAADLSWSRVVFGDYDYWGQGTQVTVSS
4. QDQLVESGGGLVQAGGSLRLSCAASGSIFGGNTMGWYRQAPGKERELVAAISRSGGSTYYADSVKGRFTISRDNAKNTVYLQMNSLKPEDTEVYYCYRKQAGHAKGYDYWGQGTQVTVSS

Output line:
1: high polyreactivity; 2: low polyreactivity; 3: low polyreactivity; 4: high polyreactivity

---

- Protocol Description: yeast display, Sf9 membrane polyspecificity reagent, FACS + sequencing; frameworks hold sequencing errors
Value Type: polyreactivity (PSR sort gate)

The following sequences have reported results that may help.
QVQLVESGGGLVQAGGSLRLSCAASGSILSAYSMGWYRQAPGKARELVAAISKSGSSTYYSDSVKGRFTISRDNAKNTVYLQMNSLKPEDTAVYYCAAESSSYYGYYIYYYWGQGTQVTVSS; high polyreactivity
QVQLVESVGGLVQAGGSLRLSCAASGSTFWFYTMGWYRQAPGKERELVATITSGGSTNYADSVKGRFTISRDNAKNTVYLQMNSLKPEDTAVYYCAASSVLTNHDYWGQGTQVTVSS; low polyreactivity
QVQLVESGGGLVQAGGSLRLSCAASGRIFWYYAMGWYRQAPGKERELVATISYGGGNTYYADSVKGRFTISRDNAKNTVYLQMNSLKPEDTAVYYCARVPYAYLPYKPFQQYSYDYWGQGTQVTVSS; high polyreactivity
QVQLVESGGGLVQAGGSLRLSCAATGSTFVYYALGWYRPAPGKERELVAAITASGGGTYYADSVKGRFTISRDNAKNTVYLQMNSLKPEDTAVYYCNRGYDYWGQGTQVTGSS; low polyreactivity

Input line: What measured polyreactivity (PSR sort gate) goes with `QVQLVESWGGLVQAGGSLRLSCAASGSTIIGYDMGWYRQAPGKVRELVAAISYSDGTYYADSVKGRFTISRDNAKNTFYLPMNSLKPEDTAVYYCAADSLYYRYDYWGQGTQVTVSW` ?
Output line: low polyreactivity
